Assignment: determine reported IC50 for the given compounds.
- Tested on: HBV DNA
- Method Notes: Quantitative PCR for measuring HBV DNA in cells (HBV DNA quantification)
- Type: cell-based
- Assay Conditions: Hepatitis B virus; read-out: HBV DNA quantification (IC50 μM)

Recorded results for 3 compounds are shown here.
Q: Quick check: IC50 of CS(=O)(=O)c1nc(Nc2ccc(F)c(Br)c2)cc(NC2CCNCC2)n1 [Compound 26g] ?
A: 0.536 µM

Q: Bench note: what IC50 did CSc1nc(NCCNC(=O)c2ccc(F)cc2)cc(Nc2ccc(N3CCOCC3)cc2)n1 [Compound 4c] show?
A: > 10 µM

Q: Which IC50 is listed for CS(=O)(=O)c1nc(Nc2ccc(F)c(Br)c2)cc(N2CCC(N)CC2)n1 [Compound 26j] ?
A: 0.48 µM

---
Q: What does the data say about its IC50? Entry: CS(=O)(=O)c1nc(Nc2cc(F)c(F)c(F)c2)cc(NC2CCNCC2)n1 [Compound 26e]
A: 0.19 µM

---

- Experimental System: Cp149 (truncated form of a HBV core protein) (Hepatitis B virus genotype D subtype ayw, UniProt P03146)
- Construct: Cp149 (amino acids 1-149) is a truncated form of a HBV core protein; histidine tag (cleaved yes); made in house; host or cells: Escherichia coli BL21(DE3)
- Sequence (P03146 1-149): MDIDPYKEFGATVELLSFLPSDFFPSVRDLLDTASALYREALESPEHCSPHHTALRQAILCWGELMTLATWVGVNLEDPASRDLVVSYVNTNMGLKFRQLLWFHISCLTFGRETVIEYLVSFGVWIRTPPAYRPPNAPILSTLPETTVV
- Method Notes: Protein based assay: immunoblot analysis of in vitro HBV capsid assembly
- Format: biochemical
- Assay Conditions: read-out: Protein based assay (% inhibition, 10 μM)
Outcome Measure: inhibition at 10 µM
Please give the number followed by its unit.

Q: What value of inhibition at 10 µM has been reported for the following compound? CC(C)(C)OC(=O)N1CCN(c2cc(NCc3cc(F)c(F)c(F)c3)nc(S(C)(=O)=O)n2)CC1 [Compound 22l]
A: 89%

Q: Returns the measured inhibition at 10 µM for the input compound. Input: CC(C)(C)OC(=O)N1CCN(c2cc(Nc3ccc(F)cc3)nc(S(C)(=O)=O)n2)CC1 [Compound 22a]
A: 68%

Q: Using the record for COc1ncccc1C(=O)NCCNc1cc(Nc2ccc(F)c(F)c2)nc([S+](C)[O-])n1 (stereo not shown) , report its inhibition at 10 µM.
A: 38%

Q: Need inhibition at 10 µM, item CC(C)(C)OC(=O)N1CCN(c2cc(Nc3ccc(F)c(F)c3)nc(S(C)(=O)=O)n2)CC1 [Compound 22g]
A: 84%

Q: Would you kindly share the measured inhibition at 10 µM for CC(C)(C)OC(=O)N1CCN(c2cc(Nc3cc(F)c(F)c(F)c3)nc(S(C)(=O)=O)n2)CC1 [Compound 22h] ?
A: 96%

Q: Could you tell me which inhibition at 10 µM is on file for CS(=O)(=O)c1nc(Nc2ccc(F)c(Cl)c2)cc(Nc2ccc(F)c(Cl)c2)n1 [Compound 18c] ?
A: 57%

Q: Quick one: inhibition at 10 µM for COc1ncccc1C(=O)NCCNc1cc(Nc2ccc(N3CCOCC3)cc2)nc([S+](C)[O-])n1 (stereo not shown) ?
A: 95%

Q: Could you share which inhibition at 10 µM value was measured for COc1ncccc1C(=O)NCCNc1cc(Nc2ccc(F)cc2)nc(SC)n1 ?
A: 74%

Items follow; give inhibition at 10 µM for each.
1. CSc1nc(Cl)cc(N(CCc2ccc(F)cc2)c2ccc(N3CCOCC3)cc2)n1 [Compound 10b]
2. CSc1nc(N)cc(N(Cc2ccc(F)cc2)c2ccc(N3CCOCC3)cc2)n1 [Compound 11a]
3. CS(=O)(=O)c1nc(Nc2ccc(F)cc2)cc(Nc2ccc(F)cc2)n1 [Compound 18a]
4. COc1ncccc1C(=O)NCCNc1cc(Nc2ccc(Cl)cc2)nc(SC)n1
5. COc1ncccc1C(=O)NCCNc1cc(Nc2ccc(Br)cc2)nc(SC)n1

A:
1. 76%
2. 71%
3. 49%
4. 26%
5. 76%

// batch mode: one inhibition at 10 µM value per listed entry
1. CS(=O)(=O)c1nc(Cl)cc(Nc2ccc(F)cc2F)n1 [Compound 16a]
2. CC(C)(C)OC(=O)N1CCN(c2cc(Nc3ccc(Cl)cc3)nc(S(C)(=O)=O)n2)CC1 [Compound 22c]
3. COc1ncccc1C(=O)NCCNc1cc(Nc2ccc(F)cc2Cl)nc([S+](C)[O-])n1 (stereo not shown)

A:
["85%", "68%", "43%"]

---

- Test system: HBV DNA
- Method Notes: Quantitative PCR for measuring HBV DNA in cells (HBV DNA quantification)
- Format: cell-based
- Assay Conditions: Hepatitis B virus, read-out: HBV DNA quantification (IC50 μM)
- Protocol: After treating cells with the indicated compounds, HBV DNA secreted into the medium and intracellular HBV DNA were extracted, purified, and quantified by quantitative PCR. To isolate the secreted HBV DNA, the culture medium was recovered and centrifuged at 15,000×g to remove debris. The medium was diluted 1:1 with phosphate-buffered saline (PBS), and 1 M NaOH solution was added to a final concentration of 0.1 M. The mixture was incubated at 37° C. for 1 hour. […]
Outcome Measure: IC50 (µM)
Give bare numbers, in µM.

I need IC50 for every entry listed below, if you could help.
1. CS(=O)(=O)c1nc(Nc2ccc(F)c(Cl)c2)cc(NC2CCNCC2)n1 [Compound 26f]
2. CS(=O)(=O)c1nc(Nc2ccc(F)c(Cl)c2)cc(N2C[C@H]3C[C@@H]2CN3)n1 [Compound 29a]
3. CC(C)(C)OC(=O)N1CCN(c2cc(NCc3ccc(Cl)cc3)nc(S(C)(=O)=O)n2)CC1 [Compound 22d]
4. CC(C)(C)OC(=O)N1CCN(c2cc(Nc3ccc(Br)cc3)nc(S(C)(=O)=O)n2)CC1 [Compound 22e]
5. CC(C)(C)OC(=O)N1CCN(c2cc(NCc3ccc(F)cc3)nc(S(C)(=O)=O)n2)CC1 [Compound 22b]
6. CC(C)(C)OC(=O)N1CCN(c2cc(Nc3ccc(I)cc3)nc(S(C)(=O)=O)n2)CC1 [Compound 22f]
7. COc1ncccc1C(=O)NCCNc1cc(Nc2ccc(Br)cc2)nc([S+](C)[O-])n1 (centres unmarked) [Compound 9d]

A:
[0.199, 0.15, 5.08, 0.652, 0.549, 1.1, 0.177]

---

- Experimental System: Cp149 (truncated form of a HBV core protein) (Hepatitis B virus genotype D subtype ayw)
- Construct: Cp149 (amino acids 1-149) is a truncated form of a HBV core protein; histidine tag (cleaved yes); made in house; host or cells: Escherichia coli BL21(DE3)
- Method Notes: Protein based assay: immunoblot analysis of in vitro HBV capsid assembly
- Type: biochemical
- Assay Conditions: read-out: Protein based assay (% inhibition, 10 μM)
Would you mind telling me the reported inhibition at 10 µM of each entry?
Answers are plain numbers, in %.

Q: If you can, please state the reported inhibition at 10 µM value of COc1ncccc1C(=O)NCCNc1cc(Nc2ccc(F)c(F)c2)nc(SC)n1 [Compound 8f] .
A: 37

Parameter requested: inhibition at 10 µM. Apply to each item below.
1. COc1ncccc1C(=O)NCCNc1cc(Nc2ccc(I)cc2)nc([S+](C)[O-])n1 (centres unmarked) [Compound 9e]
2. COc1ncccc1C(=O)N1CCN(c2cc(Nc3ccc(N4CCOCC4)cc3)nc([S+](C)[O-])n2)CC1 (centres unmarked) [Compound 14]
3. COc1ncccc1C(=O)NCCNc1cc(Nc2ccccc2)nc(SC)n1 [Compound 8a]
4. CC(C)(C)OC(=O)N1CCN(c2cc(Nc3ccc(I)cc3)nc(S(C)(=O)=O)n2)CC1 [Compound 22f]

A:
37
33
0
66

Would you mind giving inhibition at 10 µM for every molecule in the list below?
1. COc1ncccc1C(=O)N1CCN(c2cc(Nc3ccc(N4CCOCC4)cc3)nc(SC)n2)CC1 [Compound 13]
2. CS(=O)(=O)c1nc(Nc2cc(F)c(F)c(F)c2)cc(Nc2cc(F)c(F)c(F)c2)n1 [Compound 18b]

A:
[31, 69]

Batch request: inhibition at 10 µM per item, same order as input.
1. CC(C)(C)OC(=O)N1CCN(c2cc(Nc3ccc(Br)cc3)nc(S(C)(=O)=O)n2)CC1 [Compound 22e]
2. COc1ncccc1C(=O)NCCNc1cc(Nc2ccc(F)c(F)c2)nc(S(C)(=O)=O)n1 [Compound 9g]
3. CC(C)(C)OC(=O)N1CCN(c2cc(NCc3ccc(Cl)cc3)nc(S(C)(=O)=O)n2)CC1 [Compound 22d]
4. COc1ncccc1C(=O)NCCNc1cc(Nc2ccc(I)cc2)nc(SC)n1 [Compound 8e]
5. CSc1nc(N)cc(N(CCc2ccc(F)cc2)c2ccc(N3CCOCC3)cc2)n1 [Compound 11b]
6. COc1cncc(C(=O)NCCNc2cc(Nc3ccc(N4CCOCC4)cc3)nc(SC)n2)c1 [Compound 4b]
7. COc1ncccc1C(=O)NCCNc1cc(Nc2ccc(F)cc2Cl)nc(S(C)(=O)=O)n1 [Compound 9i]
8. COc1ncccc1C(=O)NCCNc1cc(Nc2ccc(F)cc2Cl)nc(SC)n1 [Compound 8g]

A:
[67, 59, 55, 43, 74, 37, 43, 43]

Hello, I would appreciate it if you could give inhibition at 10 µM for each entry below.
1. C[S+]([O-])c1nc(NCCNC(=O)c2ccc(F)cc2)cc(Nc2ccc(N3CCOCC3)cc2)n1 (centres unmarked) [Compound 5c]
2. CSc1nc(Cl)cc(N(Cc2ccc(F)cc2)c2ccc(N3CCOCC3)cc2)n1 [Compound 10a]

A:
1: 0; 2: 58
